Sourced from patent US9822130B2

Entries and their EC50 values follow.
- Test system: sGC α1/β1 heterodimer stably expressed in CHO-K1 cell line (CHO-K1/sGC) (Homo sapiens, UniProt Q02108+Q02153)
- Construct: expressed in transfected cells
- Sequence (Q02108 1-690): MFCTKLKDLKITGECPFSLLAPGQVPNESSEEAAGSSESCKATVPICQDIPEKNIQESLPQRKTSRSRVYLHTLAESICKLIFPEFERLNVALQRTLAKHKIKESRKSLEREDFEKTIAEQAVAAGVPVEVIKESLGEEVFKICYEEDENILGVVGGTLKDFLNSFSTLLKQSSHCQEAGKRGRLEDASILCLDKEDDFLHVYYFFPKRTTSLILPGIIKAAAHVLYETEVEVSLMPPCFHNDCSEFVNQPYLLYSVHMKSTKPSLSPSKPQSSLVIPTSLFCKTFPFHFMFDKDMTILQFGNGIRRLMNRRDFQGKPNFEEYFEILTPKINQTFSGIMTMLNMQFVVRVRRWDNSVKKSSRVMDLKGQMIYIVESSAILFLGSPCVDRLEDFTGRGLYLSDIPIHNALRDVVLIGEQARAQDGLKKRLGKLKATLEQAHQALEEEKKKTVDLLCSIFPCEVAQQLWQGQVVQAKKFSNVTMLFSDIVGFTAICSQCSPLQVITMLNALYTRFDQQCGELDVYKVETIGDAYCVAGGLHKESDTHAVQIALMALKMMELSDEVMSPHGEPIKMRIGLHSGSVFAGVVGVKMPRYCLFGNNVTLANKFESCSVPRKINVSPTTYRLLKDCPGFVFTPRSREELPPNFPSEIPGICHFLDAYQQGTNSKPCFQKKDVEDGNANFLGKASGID
- Sequence (Q02153 1-619): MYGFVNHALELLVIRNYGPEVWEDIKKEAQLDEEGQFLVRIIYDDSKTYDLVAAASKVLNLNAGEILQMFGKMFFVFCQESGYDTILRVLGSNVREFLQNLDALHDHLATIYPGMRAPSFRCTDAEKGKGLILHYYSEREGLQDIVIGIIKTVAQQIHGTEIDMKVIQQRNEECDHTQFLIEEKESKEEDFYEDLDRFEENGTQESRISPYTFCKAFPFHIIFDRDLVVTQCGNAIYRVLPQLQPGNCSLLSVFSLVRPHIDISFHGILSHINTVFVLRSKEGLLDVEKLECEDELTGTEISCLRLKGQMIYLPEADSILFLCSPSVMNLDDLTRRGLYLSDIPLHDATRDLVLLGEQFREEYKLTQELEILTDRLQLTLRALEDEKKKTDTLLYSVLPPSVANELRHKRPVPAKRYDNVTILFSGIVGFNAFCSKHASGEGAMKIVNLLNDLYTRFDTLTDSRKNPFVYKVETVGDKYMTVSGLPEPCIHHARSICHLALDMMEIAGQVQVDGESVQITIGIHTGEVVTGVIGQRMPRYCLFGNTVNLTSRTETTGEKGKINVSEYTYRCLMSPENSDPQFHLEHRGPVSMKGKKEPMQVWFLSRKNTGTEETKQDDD
- Run description: Cell-based sGC Functional Assay (CASA Assay), cGMP generation
- Condition: CHO-K1/sGC cells, 1 hr at 37° C., cGMP by HTRF, 4P fit; presence or absence of 1 μM DETA-NO not given; read-out: IP (nM) (inflection point)
// note: answer is a bare numeric in nM

For orientation, consider the following solved cases.
>  <Compound>
CCCc1nc(-c2nc(N)c3c(n2)NC(=O)C3(c2ccc(F)cn2)C2CC2)cn2ncnc12 (stereo not drawn) [Example 59A]

>  <Result>
263

$$$$
>  <Compound>
CCCCc1nc(-c2nc(N)c3c(n2)NC(=O)C3(c2ccc(F)cn2)C2CC2)cn2ncnc12 (stereo not drawn) [Example 66A]

>  <Result>
34.2

$$$$

Next item in the queue.
Exercise: I have this compound here, Nc1nc(-c2cn3ncnc3c(CCCC(F)(F)F)n2)nc2c1C(c1ccc(C(F)(F)F)cc1)(C1CC1)C(=O)N2 (stereo not drawn) [Example 35A] , and I need its recorded EC50.
Key: 416

====

- Test system: sGC α1/β1 heterodimer stably expressed in CHO-K1 cell line (CHO-K1/sGC) (Homo sapiens, UniProt Q02108+Q02153)
- Construct: expressed in transfected cells
- Sequence (Q02108 1-690): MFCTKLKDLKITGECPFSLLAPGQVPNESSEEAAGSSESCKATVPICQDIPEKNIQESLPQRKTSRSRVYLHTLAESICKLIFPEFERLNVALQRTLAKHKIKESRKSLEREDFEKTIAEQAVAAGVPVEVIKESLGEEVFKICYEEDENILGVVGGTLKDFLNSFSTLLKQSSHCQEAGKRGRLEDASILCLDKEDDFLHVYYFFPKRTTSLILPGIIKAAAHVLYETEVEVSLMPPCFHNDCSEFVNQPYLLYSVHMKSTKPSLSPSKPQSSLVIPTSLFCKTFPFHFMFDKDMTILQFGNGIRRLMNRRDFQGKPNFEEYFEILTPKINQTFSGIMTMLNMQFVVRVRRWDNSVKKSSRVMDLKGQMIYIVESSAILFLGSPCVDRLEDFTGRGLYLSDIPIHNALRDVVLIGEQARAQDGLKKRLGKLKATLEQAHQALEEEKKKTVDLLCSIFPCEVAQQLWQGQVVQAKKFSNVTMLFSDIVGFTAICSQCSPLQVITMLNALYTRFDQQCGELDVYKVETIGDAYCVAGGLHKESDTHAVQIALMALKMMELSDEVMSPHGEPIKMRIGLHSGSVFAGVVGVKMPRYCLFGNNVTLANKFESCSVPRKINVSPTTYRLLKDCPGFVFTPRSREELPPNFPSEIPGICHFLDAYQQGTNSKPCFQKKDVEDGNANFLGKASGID
- Sequence (Q02153 1-619): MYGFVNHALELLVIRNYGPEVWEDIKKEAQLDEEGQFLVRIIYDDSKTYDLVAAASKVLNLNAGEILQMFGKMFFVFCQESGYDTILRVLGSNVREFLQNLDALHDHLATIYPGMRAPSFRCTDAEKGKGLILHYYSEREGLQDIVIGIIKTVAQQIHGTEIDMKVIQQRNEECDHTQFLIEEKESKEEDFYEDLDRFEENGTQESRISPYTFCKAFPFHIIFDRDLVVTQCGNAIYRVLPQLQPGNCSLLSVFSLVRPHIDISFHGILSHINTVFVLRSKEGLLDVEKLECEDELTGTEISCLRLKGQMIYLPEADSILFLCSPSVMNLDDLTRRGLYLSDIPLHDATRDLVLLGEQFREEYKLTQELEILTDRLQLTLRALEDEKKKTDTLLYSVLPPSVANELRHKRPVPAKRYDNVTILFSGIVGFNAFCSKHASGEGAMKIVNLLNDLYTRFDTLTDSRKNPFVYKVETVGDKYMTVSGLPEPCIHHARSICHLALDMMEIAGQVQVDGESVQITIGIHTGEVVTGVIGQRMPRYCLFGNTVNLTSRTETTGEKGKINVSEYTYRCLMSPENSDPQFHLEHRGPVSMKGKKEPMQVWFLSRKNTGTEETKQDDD
- Run description: Cell-based sGC Functional Assay (CASA Assay), cGMP generation
- Condition: CHO-K1/sGC cells, 1 hr at 37° C., cGMP by HTRF, 4P fit; presence or absence of 1 μM DETA-NO not given; read-out: IP (nM) (inflection point)
Metric: EC50 (nM)
// note: answer is a bare numeric in nM

For orientation, consider the following solved cases.
>  <Compound>
CCCCc1nc(-c2nc(O)c3c(n2)NC(=O)C3(C)c2ccc(Cl)c(F)c2)cn2ncnc12 (centres unmarked) [Example 156B]

>  <Measure unit>
nM

>  <EC50>
23.3

$$$$
>  <Compound>
CCCCc1nc(-c2nc(N)c3c(n2)NC(=O)C3(C)c2ccc(F)c(F)c2)cn2ncnc12 (centres unmarked) [Example 64B]

>  <Measure unit>
nM

>  <EC50>
5.1

$$$$
>  <Compound>
Cc1nnc(C2(C)C(=O)Nc3nc(-c4cn5ncnc5c(CCC(F)(F)C(F)(F)F)n4)nc(N)c32)o1 (single isomer, unassigned) [Example 97B]

>  <Measure unit>
nM

>  <EC50>
219

$$$$
>  <Compound>
CC1(c2ccc(Cl)cn2)C(=O)Nc2nc(-c3cn4ncnc4c(CCCC(F)(F)F)n3)nc(O)c21 (centres unmarked) [Example 134A]

>  <Measure unit>
nM

>  <EC50>
857

$$$$
>  <Compound>
O=C1Nc2nc(-c3cn4ncnc4c(CCC(F)(F)C(F)(F)F)n3)nc(O)c2C1(c1cncc(F)c1)C1CC1 (centres unmarked) [Example 124B]

>  <Measure unit>
nM

>  <EC50>
1050

$$$$
>  <Compound>
Nc1nc(-c2cn3ncnc3c(CCCC(F)(F)F)n2)nc2c1C(c1ccc(F)c(F)c1)(C1CC1)C(=O)N2 (centres unmarked) [Example 32A]

>  <Measure unit>
nM

>  <EC50>
77.4

$$$$

Exercise: I have this compound here, CCCc1nc(-c2nc(N)c3c(n2)NC(=O)C3(C)c2ccc(Cl)cc2)cn2ncnc12 (centres unmarked) [Example 53A] , and I need its recorded EC50.
Key: 26.9

Exercise: I have this compound here, Nc1nc(-c2cn3ncnc3c(CCC(F)(F)F)n2)nc2c1C(c1ccc(F)c(F)c1)(C1CC1)C(=O)N2 (centres unmarked) [Example 83A] , and I need its recorded EC50.
Key: 270
